- systemUnderTest: Homo sapiens hexokinase IV (HsHxKIV) (Homo sapiens (Human))
- experimentSummary: HsHxKIV enzyme-inhibition screening assay (Example 1)
- Assay type: biochemical
- measurementParameters: 20 μM compound; N = 1
- Protocol: D-Glucose was also tested as a control with alternative substrates. The protein expression work for TcGlcK and HsHxKIV were each made possible through the E. coli strain BL21(DE3) system. […] In enzymatic assays, a time-optimum (TOPT) was determined to be 120 seconds for TcGlcK and 600 seconds for HsHxKIV; all assays were run at room temperature. […] Fluorescence of NADPH was monitored using a fluorescence microplate reader with […] wavelengths of 340 nm and 485 nm, respectively. […]
measure: HsHxKIV Inh20(%)
Give the value, in units of %, as a plain number.

Example compounds with recorded HsHxKIV Inh20(%):
compound	HsHxKIV Inh20(%)
O=C(N[C@@H]1C(O)O[C@H](CO)[C@@H](O)[C@@H]1O)c1cc2ccccc2o1 (stereo partly shown)	12
O=C(N[C@H]1C(O)O[C@H](CO)[C@H](O)[C@@H]1O)c1ccccc1 (stereo partly shown)	38
O=C(N[C@@H]1C(O)O[C@H](CO)[C@@H](O)[C@@H]1O)c1ccccc1 (stereo partly shown)	55

Next, consider the following compound.
Quick one: give measured HsHxKIV Inh20(%) for Cc1ccc(C(=O)N[C@H]2C(O)O[C@H](CO)[C@H](O)[C@@H]2O)o1 (stereo partly shown)
41

---

- systemUnderTest: TcGlcK (Trypanosoma cruzi (strain CL Brener))
- Sequence (Q4E4E1 1-376): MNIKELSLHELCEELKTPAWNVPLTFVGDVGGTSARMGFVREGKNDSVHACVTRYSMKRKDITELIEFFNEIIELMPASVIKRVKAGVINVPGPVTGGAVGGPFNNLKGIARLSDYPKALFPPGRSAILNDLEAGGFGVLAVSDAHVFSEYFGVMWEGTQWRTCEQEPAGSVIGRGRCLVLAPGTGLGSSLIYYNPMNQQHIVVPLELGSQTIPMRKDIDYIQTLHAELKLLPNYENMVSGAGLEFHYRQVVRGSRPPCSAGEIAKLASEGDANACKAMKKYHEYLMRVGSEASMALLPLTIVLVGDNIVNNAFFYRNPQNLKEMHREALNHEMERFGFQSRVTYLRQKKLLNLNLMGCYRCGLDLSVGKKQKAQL
- Type: biochemical
- measurementParameters: N = 3
measure: pKi
pKi here is simply -log10 of the concentration when that concentration is written in mol/L.

Supply pKi value. Item: O=C(N[C@H]1C(O)O[C@H](CO)[C@@H](O)[C@@H]1O)c1cc2ccccc2o1 (stereo partly shown)
3.86

---

- systemUnderTest: TcGlcK (Trypanosoma cruzi (strain CL Brener))
- experimentSummary: Primary assay screen of TcGlcK, normalized percent inhibition (Example 2)
- Type: biochemical
- measurementParameters: triplicate
Form field: NPI (%) TcGlcK (one value per entry).
Dear colleague, please return just the value in %, with no unit written.

molecule	measure	observedValue
O=[N+]([O-])C1=Cc2cc(Br)ccc2O[C@H]1c1ccccc1Cl	NPI (%) TcGlcK	89.5

Item "O=[N+]([O-])C1=Cc2ccccc2O[C@H]1c1c(Cl)cccc1Cl" : provide NPI (%) TcGlcK
69.5

Quote NPI (%) TcGlcK reported for O=C(N[C@H]1C(O)O[C@H](CO)[C@@H](O)[C@@H]1O)c1ccccc1 (stereo partly drawn) please.
100

Indicate its recorded NPI (%) TcGlcK; the molecule in question is O=C(NC1C(O)OC(CO)C(O)C1O)OCc1ccccc1 (stereo not drawn) [CBZ-GlcN, carboxybenzyl glucosamine, reference compound]
100

Give the measured NPI (%) TcGlcK for "O=[N+]([O-])C1=Cc2cc(Br)cc(Br)c2O[C@H]1c1c(Cl)cccc1Cl"
62.3

Check the records and state NPI (%) TcGlcK for "O=[N+]([O-])C1=Cc2ccccc2O[C@H]1c1ccccc1Cl"
54.7

---

- Test system: T. cruzi (Tulahuen strain) infective form (trypomastigote and amastigote life stages) co-cultured in NIH-3T3 fibroblasts
- experimentSummary: T. cruzi infective form growth inhibition in NIH-3T3 fibroblasts
- Assay type: cell-based, Trypanosoma cruzi
- measurementParameters: Tulahuen strain infective form in NIH-3T3 fibroblasts; N = 3 (Amphotericin B control: 6 replicates)
- Procedure: The curve and the IC50 were calculated from measurements determined in triplicate and expressed as percent growth inhibition of the T. cruzi parasite infection of mammalian cells. Compounds were further screened against the T. cruzi (Tulahuen strain) infective form (trypomastigote and amastigote life stages) co-cultured in NIH-3T3 fibroblasts to establish IC50 values. Assays were performed in triplicate. […]
Consider the following compounds and their measured pIC50 readings.
Reminder that pIC50 means the negative base-10 logarithm of the concentration expressed in mol/L.

Solved entries (count: 5):
compound	observedValue
O=C(N[C@H]1C(O)O[C@H](CO)[C@@H](O)[C@@H]1O)c1cccc(Br)c1 (some centres unmarked)	4.18
O=C(N[C@H]1C(O)O[C@H](CO)[C@H](O)[C@@H]1O)c1ccoc1 (some centres unmarked)	4.44
O=C(N[C@@H]1C(O)O[C@H](CO)[C@@H](O)[C@@H]1O)c1ccoc1 (some centres unmarked)	4.17
O=C(N[C@H]1C(O)O[C@H](CO)[C@H](O)[C@@H]1O)c1ccc(CCl)cc1 (some centres unmarked)	4.42
O=C(N[C@@H]1C(O)O[C@H](CO)[C@@H](O)[C@@H]1O)c1ccc(CCl)cc1 (some centres unmarked)	4.42

Specify pIC50 for O=C(N[C@@H]1C(O)O[C@H](CO)[C@@H](O)[C@@H]1O)c1ccccc1 (some centres unmarked) and stop.
4.36

Give pIC50 for O=C(N[C@H]1C(O)O[C@H](CO)[C@@H](O)[C@@H]1O)c1cc2ccccc2o1 (some centres unmarked)
4.56

Check the records and state pIC50 for O=C(N[C@@H]1C(O)O[C@H](CO)[C@@H](O)[C@@H]1O)c1cc2ccccc2o1 (some centres unmarked)
4.37

---

Listed compounds paired with reported HsHxKIV Inh20(%)
- systemUnderTest: Homo sapiens hexokinase IV (HsHxKIV) (Homo sapiens (Human), UniProt P35557)
- experimentSummary: HsHxKIV enzyme-inhibition screening assay (Example 1)
- Format: biochemical
- measurementParameters: 20 μM compound; N = 1
- Protocol: D-Glucose was also tested as a control with alternative substrates. The protein expression work for TcGlcK and HsHxKIV were each made possible through the E. coli strain BL21(DE3) system. […] In enzymatic assays, a time-optimum (TOPT) was determined to be 120 seconds for TcGlcK and 600 seconds for HsHxKIV; all assays were run at room temperature. […] Fluorescence of NADPH was monitored using a fluorescence microplate reader with […] wavelengths of 340 nm and 485 nm, respectively. […]
Numeric answer only, unit % assumed.

compound	systemUnderTest	observedValue
O=C(N[C@H]1C(O)O[C@H](CO)[C@@H](O)[C@@H]1O)c1ccc(CCl)cc1 (stereo partly shown)	Homo sapiens hexokinase IV (HsHxKIV) (Homo sapiens (Human), UniProt P35557)	35
O=C(N[C@@H]1C(O)O[C@H](CO)[C@@H](O)[C@@H]1O)c1cccc(Br)c1 (stereo partly shown)	Homo sapiens hexokinase IV (HsHxKIV) (Homo sapiens (Human), UniProt P35557)	27
O=C(N[C@H]1C(O)O[C@H](CO)[C@@H](O)[C@@H]1O)c1ccccc1 (stereo partly shown)	Homo sapiens hexokinase IV (HsHxKIV) (Homo sapiens (Human), UniProt P35557)	39

Continue with the compound presented below.
Provide only the value of recorded HsHxKIV Inh20(%) for O=C(N[C@H]1C(O)O[C@H](CO)[C@H](O)[C@@H]1O)c1cc2ccccc2o1 (stereo partly shown)
37

---

- systemUnderTest: HsHxKIV (Homo sapiens (Human))
- Sequence (P35557 whole entry): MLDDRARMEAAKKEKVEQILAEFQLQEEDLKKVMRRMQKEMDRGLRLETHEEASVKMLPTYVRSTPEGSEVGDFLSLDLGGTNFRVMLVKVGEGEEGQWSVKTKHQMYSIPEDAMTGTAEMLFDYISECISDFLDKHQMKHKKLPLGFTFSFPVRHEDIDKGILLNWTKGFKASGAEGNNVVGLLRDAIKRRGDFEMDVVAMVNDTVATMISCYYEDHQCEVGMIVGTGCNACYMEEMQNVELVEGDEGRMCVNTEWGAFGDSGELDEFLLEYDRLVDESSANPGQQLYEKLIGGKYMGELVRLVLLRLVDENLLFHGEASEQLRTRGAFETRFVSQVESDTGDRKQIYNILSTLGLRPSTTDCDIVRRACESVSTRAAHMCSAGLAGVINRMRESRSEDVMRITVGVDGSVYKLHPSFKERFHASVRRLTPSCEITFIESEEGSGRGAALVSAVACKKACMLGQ
- experimentSummary: Primary assay screen of HsHxKIV, normalized percent inhibition (Example 2)
- Format: biochemical
- measurementParameters: triplicate
measure: NPI (%) HsHxKIV
// return numeric value only (unit: %, not printed)

Consider the following illustrative entries.
compound	systemUnderTest	observedValue
O=[N+]([O-])C1=Cc2ccccc2O[C@H]1c1c(Cl)cccc1Cl	HsHxKIV (Homo sapiens (Human))	66.0
O=[N+]([O-])C1=Cc2ccccc2O[C@H]1c1ccccc1Cl	HsHxKIV (Homo sapiens (Human))	51.8
O=[N+]([O-])C1=Cc2cc(Br)ccc2O[C@H]1c1ccccc1Cl	HsHxKIV (Homo sapiens (Human))	64.7
O=C(N[C@H]1C(O)O[C@H](CO)[C@@H](O)[C@@H]1O)c1ccccc1 (stereo partly drawn)	HsHxKIV (Homo sapiens (Human))	9.30
O=C(NC1C(O)OC(CO)C(O)C1O)OCc1ccccc1 (stereo not drawn) [CBZ-GlcN, carboxybenzyl glucosamine, reference compound]	HsHxKIV (Homo sapiens (Human))	15.0

Then there is this compound:
Retrieve NPI (%) HsHxKIV on HsHxKIV (Homo sapiens (Human)); query "O=[N+]([O-])C1=Cc2cc(Br)cc(Br)c2O[C@H]1c1c(Cl)cccc1Cl"
82.1

---

Here the recorded HsHxKIV Inh20(%) is given for each entry.
- systemUnderTest: Homo sapiens hexokinase IV (HsHxKIV) (Homo sapiens (Human), UniProt P35557)
- experimentSummary: HsHxKIV enzyme-inhibition screening assay (Example 1)
- Assay type: biochemical
- measurementParameters: 20 μM compound; N = 1
The answer is to be given in %; state only the numeric part.

Some solved entries appear below for comparison.
compound	HsHxKIV Inh20(%)
O=C(N[C@H]1C(O)O[C@H](CO)[C@H](O)[C@@H]1O)c1ccoc1 (stereo partly shown)	47
O=C(N[C@H]1C(O)O[C@H](CO)[C@H](O)[C@@H]1O)c1ccc(CCl)cc1 (stereo partly shown)	8

Identify measured HsHxKIV Inh20(%) corresponding to O=C(N[C@H]1C(O)O[C@H](CO)[C@@H](O)[C@@H]1O)c1cc2ccccc2o1 (stereo partly shown)
25

Give the measured HsHxKIV Inh20(%) for O=C(N[C@H]1C(O)O[C@H](CO)[C@@H](O)[C@@H]1O)c1cccc(Br)c1 (stereo partly shown)
31
